- targetOrTestSystem: Neuronal acetylcholine receptor; alpha4/beta2 (Rattus norvegicus, UniProt P09483+P12390)
- Sequence (P09483 whole entry): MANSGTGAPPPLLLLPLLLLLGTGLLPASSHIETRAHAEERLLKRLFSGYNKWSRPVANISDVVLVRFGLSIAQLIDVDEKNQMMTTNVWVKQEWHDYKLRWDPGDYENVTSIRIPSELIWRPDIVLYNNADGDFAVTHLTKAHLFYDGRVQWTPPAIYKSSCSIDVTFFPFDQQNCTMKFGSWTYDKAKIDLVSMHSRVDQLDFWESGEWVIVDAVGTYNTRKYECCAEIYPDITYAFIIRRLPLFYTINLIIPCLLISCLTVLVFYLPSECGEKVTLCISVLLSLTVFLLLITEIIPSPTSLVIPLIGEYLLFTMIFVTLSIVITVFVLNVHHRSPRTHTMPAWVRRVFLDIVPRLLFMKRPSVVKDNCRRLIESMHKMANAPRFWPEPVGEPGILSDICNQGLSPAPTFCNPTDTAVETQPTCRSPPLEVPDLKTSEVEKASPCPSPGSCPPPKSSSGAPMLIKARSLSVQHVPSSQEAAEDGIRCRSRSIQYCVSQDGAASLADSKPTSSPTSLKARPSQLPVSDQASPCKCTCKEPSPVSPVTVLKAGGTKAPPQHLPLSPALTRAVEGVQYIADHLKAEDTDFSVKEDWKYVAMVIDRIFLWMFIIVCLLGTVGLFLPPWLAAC
- Sequence (P12390 whole entry): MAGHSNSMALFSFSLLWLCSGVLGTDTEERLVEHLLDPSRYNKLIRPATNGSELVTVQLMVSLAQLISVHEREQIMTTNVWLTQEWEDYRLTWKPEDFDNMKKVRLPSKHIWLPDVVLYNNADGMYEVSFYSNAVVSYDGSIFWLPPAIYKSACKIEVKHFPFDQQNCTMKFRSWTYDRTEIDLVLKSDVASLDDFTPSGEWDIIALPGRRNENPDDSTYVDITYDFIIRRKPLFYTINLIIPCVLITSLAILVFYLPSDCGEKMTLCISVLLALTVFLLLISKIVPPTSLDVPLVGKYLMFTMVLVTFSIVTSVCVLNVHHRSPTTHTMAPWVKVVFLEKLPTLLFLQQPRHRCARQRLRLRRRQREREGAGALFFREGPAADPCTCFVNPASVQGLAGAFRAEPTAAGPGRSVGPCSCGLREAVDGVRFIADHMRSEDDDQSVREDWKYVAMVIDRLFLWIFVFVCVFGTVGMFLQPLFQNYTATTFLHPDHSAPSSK
- experimentalProtocol: Displacement of [3H]epibatidine from rat alpha4beta2 nAChR expressed in HEK293 cell membranes after 4 hrs by scintillation counting method
Response field label: string, one of 1 (Ki strictly below 0.7 µM) or -1.

Example results:
molecule	targetOrTestSystem	classLabel
COc1ccc2c(c1)C1CCCN1CC2 (stereo not drawn)	Neuronal acetylcholine receptor; alpha4/beta2 (Rattus norvegicus, UniProt P09483+P12390)	-1
c1ccc2c(c1)CCN1CCCC21 (stereo not drawn)	Neuronal acetylcholine receptor; alpha4/beta2 (Rattus norvegicus, UniProt P09483+P12390)	-1
CN1CCc2cc3c(cc2C1)OCO3	Neuronal acetylcholine receptor; alpha4/beta2 (Rattus norvegicus, UniProt P09483+P12390)	-1
COc1cc2c(cc1OCc1ccccc1)C1CCC[N+]1(C)CC2 (stereo not drawn)	Neuronal acetylcholine receptor; alpha4/beta2 (Rattus norvegicus, UniProt P09483+P12390)	-1
COc1cc2c(cc1OCc1ccccc1)CC[N+](C)(C)C2	Neuronal acetylcholine receptor; alpha4/beta2 (Rattus norvegicus, UniProt P09483+P12390)	1
COc1cc2c(cc1OCc1ccccc1)CCN1CCCC21 (stereo not drawn)	Neuronal acetylcholine receptor; alpha4/beta2 (Rattus norvegicus, UniProt P09483+P12390)	-1
COC1CC=C2CCN3CCC4=C(CC(=O)OC4)[C@]23C1 (stereo partly drawn)	Neuronal acetylcholine receptor; alpha4/beta2 (Rattus norvegicus, UniProt P09483+P12390)	1
C[N+]12CCC[C@H]1c1cc3c(cc1CC2)OCO3 (stereo partly drawn)	Neuronal acetylcholine receptor; alpha4/beta2 (Rattus norvegicus, UniProt P09483+P12390)	-1

Prompt: Identify whether the molecule c1c2c(cc3c1OCO3)[C@H]1CCCN1CC2 records Ki below 0.7 µM.
Completion: 1

Prompt: Also, COc1ccc(CC2c3cc(OC)c(OC)cc3CCN2C)cc1OC (stereo not drawn) please.
Completion: -1

Prompt: Also, C[N+]1(C)CCc2cc3c(cc2C1)OCO3 please.
Completion: 1

Prompt: Also, COc1cc2c(cc1OC)C[N+](C)(C)CC2 please.
Completion: 1

Prompt: Also, COc1ccc2c(c1)CC[N+]1(C)CCCC21 (stereo not drawn) please.
Completion: -1

====

- targetOrTestSystem: Neuronal acetylcholine receptor; alpha3/beta4 (Rattus norvegicus, UniProt P04757+P12392)
- Sequence (P04757 whole entry): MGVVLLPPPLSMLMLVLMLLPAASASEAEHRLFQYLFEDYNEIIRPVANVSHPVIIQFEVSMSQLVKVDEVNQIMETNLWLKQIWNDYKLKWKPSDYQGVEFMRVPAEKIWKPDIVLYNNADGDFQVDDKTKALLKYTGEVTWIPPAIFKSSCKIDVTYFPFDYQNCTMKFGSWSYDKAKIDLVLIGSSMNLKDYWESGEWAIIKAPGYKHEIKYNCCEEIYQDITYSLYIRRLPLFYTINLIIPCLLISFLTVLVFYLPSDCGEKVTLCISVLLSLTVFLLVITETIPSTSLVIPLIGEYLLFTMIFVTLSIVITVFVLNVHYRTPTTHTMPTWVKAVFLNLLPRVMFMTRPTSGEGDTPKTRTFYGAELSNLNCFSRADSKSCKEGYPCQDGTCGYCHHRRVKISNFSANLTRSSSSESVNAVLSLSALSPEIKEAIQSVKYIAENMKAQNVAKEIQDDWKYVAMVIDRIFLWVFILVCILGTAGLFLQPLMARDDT
- Sequence (P12392 whole entry): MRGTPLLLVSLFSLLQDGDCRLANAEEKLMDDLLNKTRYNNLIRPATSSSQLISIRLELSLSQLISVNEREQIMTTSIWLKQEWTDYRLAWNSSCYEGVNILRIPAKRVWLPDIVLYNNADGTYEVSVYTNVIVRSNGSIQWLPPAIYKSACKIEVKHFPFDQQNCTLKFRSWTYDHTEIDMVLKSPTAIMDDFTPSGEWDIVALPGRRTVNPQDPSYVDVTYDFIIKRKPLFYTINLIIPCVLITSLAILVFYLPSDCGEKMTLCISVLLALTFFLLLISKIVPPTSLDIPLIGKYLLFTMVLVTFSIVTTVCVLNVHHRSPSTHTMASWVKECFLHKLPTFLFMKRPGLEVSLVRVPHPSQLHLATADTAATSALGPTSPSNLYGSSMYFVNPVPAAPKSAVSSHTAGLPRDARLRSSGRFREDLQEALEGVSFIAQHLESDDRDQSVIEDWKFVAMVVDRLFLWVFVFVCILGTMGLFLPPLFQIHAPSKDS
- experimentalProtocol: Displacement of [3H]epibatidine from rat alpha3beta4 nAChR expressed in HEK293 cell membranes after 4 hrs by scintillation counting method
Examples of compounds with documented pKi follow.
# reply with the number alone; pKi is -log10 of concentration in mol/L

compound	readoutName	resultNumber
C[N+]12CCCC1c1ccccc1CC2 (stereo not drawn)	pKi	4.30
COc1ccc2c(c1)CCN(C)C2	pKi	4.00
COc1cc2c(cc1OCc1ccccc1)CN(C)CC2	pKi	3.52
COc1cc2c(cc1OCc1ccccc1)C1CCC[N+]1(C)CC2 (stereo not drawn)	pKi	3.52
COc1cc2c(cc1OC)C1CCC[N+]1(C)CC2 (stereo not drawn)	pKi	4.30

Prompt: Any idea what its pKi is? The compound is C[N+]12CCC[C@H]1c1cc3c(cc1CC2)OCO3 (stereo partly drawn)
Completion: 4.60

Prompt: Also, COc1cc2c(cc1O)CN(C)CC2 please.
Completion: 4.00

Prompt: Also, COc1cc2c(cc1OC)C[N+](C)(Cc1ccccc1)CC2 (stereo not drawn) please.
Completion: 3.52

Prompt: Also, CCC[N+]1(C)CCc2cc(OC)c(OC)cc2C1 (stereo not drawn) please.
Completion: 3.52

Prompt: Also, COc1ccc2c(c1)C1CCCN1CC2 (stereo not drawn) please.
Completion: 4.00

Prompt: Also, COc1cc2c(cc1OC)C1CCCN1CC2 (stereo not drawn) please.
Completion: 4.00

====

Examples of compounds with documented pIC50 follow.
- targetOrTestSystem: Neuronal acetylcholine receptor; alpha3/beta4 (Rattus norvegicus, UniProt P04757+P12392)
- experimentalProtocol: Antagonist activity at rat alpha3beta4 nAChR expressed in HEK293 cells assessed as inhibition of (S)-nicotine-induced […] response measured up to 90 secs by FMP assay
pIC50: −log10 of the molar value.

compound	readoutName	result
COc1cc2c(cc1OC)[C@H]1CCC[N+]1(C)CC2 (some centres not stated)	pIC50	< 4.00
COc1cc2c(cc1OCc1ccccc1)CC[N+](C)(C)C2	pIC50	< 3.52
COc1cc2c(cc1O)C[N+](C)(C)CC2	pIC50	< 4.00
C[N+]12CCCC1c1ccccc1CC2 (configuration not stated)	pIC50	< 4.00
COc1cc2c(cc1OCc1ccccc1)C[N+](C)(C)CC2	pIC50	< 3.52
COc1ccc(CC2c3cc(OC)c(OC)cc3CC[N+]2(C)C)cc1OC (configuration not stated)	pIC50	< 4.00
COc1cc2c(cc1OC)C1CCC[N+]1(C)CC2 (configuration not stated)	pIC50	4.00
COc1cc2c(cc1OCc1ccccc1)C1CCC[N+]1(C)CC2 (configuration not stated)	pIC50	3.52
COc1cc2c(cc1OC)C[N+](C)(Cc1ccccc1)CC2 (configuration not stated)	pIC50	< 3.52
COc1ccc2c(c1)CC[N+]1(C)CCCC21 (configuration not stated)	pIC50	4.00

Prompt: Any idea what its pIC50 is? The compound is COC1CC=C2CCN3CCC4=C(CC(=O)OC4)[C@]23C1 (some centres not stated)
Completion: 4.00

====

Examples of compounds with documented Ki follow.
- targetOrTestSystem: Neuronal acetylcholine receptor; alpha4/beta2 (Rattus norvegicus, UniProt P09483+P12390)
- experimentalProtocol: Displacement of [3H]epibatidine from rat alpha4beta2 nAChR expressed in HEK293 cell membranes after 4 hrs by scintillation counting method
Just the number please, in nM, no unit attached.

Prompt: Checklist item: Ki tested on Neuronal acetylcholine receptor; alpha4/beta2 (Rattus norvegicus, UniProt P09483+P12390), entry C[N+]12CCC[C@@H]1c1cc3c(cc1CC2)OCO3 (some centres not stated) , value?
Completion: 45

====

- targetOrTestSystem: Neuronal acetylcholine receptor; alpha4/beta4 (Rattus norvegicus, UniProt P09483+P12392)
- Sequence (P12392 whole entry, one chain of several): as the sequence (P12392 whole entry) above
- experimentalProtocol: Displacement of [3H]epibatidine from rat alpha4beta4 nAChR expressed in HEK293 cell membranes after 4 hrs by scintillation counting method
readoutName: log10(Ki) (log10 of the value in µM)
For clarity, the numbers are log10 values of Ki expressed in µM.

Prompt: Any idea what its log10(Ki) is? The compound is COc1ccc2c(c1)CCN(C)C2
Completion: 1.40

====

- targetOrTestSystem: Nicotinic acetylcholine receptor alpha-4/beta-2 (Mus musculus, UniProt Q8R493+Q9ERK7)
- Sequence (Q9ERK7 whole entry): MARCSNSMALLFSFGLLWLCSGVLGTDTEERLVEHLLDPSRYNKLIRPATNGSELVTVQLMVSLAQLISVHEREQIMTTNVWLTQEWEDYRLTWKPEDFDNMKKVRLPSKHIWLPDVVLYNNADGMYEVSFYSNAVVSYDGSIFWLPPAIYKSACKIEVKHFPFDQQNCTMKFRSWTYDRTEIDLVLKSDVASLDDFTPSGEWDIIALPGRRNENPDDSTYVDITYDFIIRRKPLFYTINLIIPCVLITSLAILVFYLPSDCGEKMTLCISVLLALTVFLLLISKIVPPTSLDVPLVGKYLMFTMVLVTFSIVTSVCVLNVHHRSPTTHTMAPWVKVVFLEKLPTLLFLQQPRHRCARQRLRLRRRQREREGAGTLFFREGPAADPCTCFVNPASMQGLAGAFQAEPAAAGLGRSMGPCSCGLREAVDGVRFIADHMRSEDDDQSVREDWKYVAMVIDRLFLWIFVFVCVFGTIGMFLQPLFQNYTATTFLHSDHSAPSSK
- Sequence (Q8R493 whole entry): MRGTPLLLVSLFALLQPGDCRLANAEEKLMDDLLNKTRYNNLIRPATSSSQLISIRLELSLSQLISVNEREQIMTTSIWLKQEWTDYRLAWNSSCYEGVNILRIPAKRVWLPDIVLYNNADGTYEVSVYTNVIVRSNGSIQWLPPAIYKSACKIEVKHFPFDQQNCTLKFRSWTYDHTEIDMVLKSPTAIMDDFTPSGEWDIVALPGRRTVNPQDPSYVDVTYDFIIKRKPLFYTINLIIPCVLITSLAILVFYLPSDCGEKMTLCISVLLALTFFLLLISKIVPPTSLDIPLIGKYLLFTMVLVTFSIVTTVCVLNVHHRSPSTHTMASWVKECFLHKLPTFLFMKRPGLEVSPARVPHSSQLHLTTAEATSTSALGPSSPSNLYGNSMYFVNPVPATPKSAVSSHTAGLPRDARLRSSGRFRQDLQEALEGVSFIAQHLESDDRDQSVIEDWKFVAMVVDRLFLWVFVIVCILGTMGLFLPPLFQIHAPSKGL
- experimentalProtocol: Antagonist activity at mouse alpha4beta2 nAChR expressed in HEK293 cells assessed as inhibition of (S)-nicotine-induced […] response measured up to 90 secs by FMP assay
readoutName: IC50 (µM)
Just the number please, in µM, no unit attached.

Some molecules with recorded IC50:
molecule	IC50 (µM)
COc1ccc2c(c1)CCN1CCCC21 (stereo not drawn)	100
c1c2c(cc3c1OCO3)[C@H]1CCCN1CC2	1.3
COc1cc2c(cc1OCc1ccccc1)CC[N+]1(C)CCCC21 (stereo not drawn)	3.1
COc1ccc2c(c1)C1CCCN1CC2 (stereo not drawn)	9.1
C[N+]12CCCC1c1cc3c(cc1CC2)OCO3 (stereo not drawn)	0.52

Prompt: Any idea what its IC50 is? The molecule is c1c2c(cc3c1OCO3)C1CCCN1CC2 (stereo not drawn)
Completion: 2.3

Prompt: Also, CC[N+]1(C)CCc2cc(OC)c(OC)cc2C1 (stereo not drawn) please.
Completion: 11

====

Examples of molecules with documented pIC50 follow.
- targetOrTestSystem: Neuronal acetylcholine receptor subunit alpha-7 (Homo sapiens)
- Sequence (P36544 whole entry): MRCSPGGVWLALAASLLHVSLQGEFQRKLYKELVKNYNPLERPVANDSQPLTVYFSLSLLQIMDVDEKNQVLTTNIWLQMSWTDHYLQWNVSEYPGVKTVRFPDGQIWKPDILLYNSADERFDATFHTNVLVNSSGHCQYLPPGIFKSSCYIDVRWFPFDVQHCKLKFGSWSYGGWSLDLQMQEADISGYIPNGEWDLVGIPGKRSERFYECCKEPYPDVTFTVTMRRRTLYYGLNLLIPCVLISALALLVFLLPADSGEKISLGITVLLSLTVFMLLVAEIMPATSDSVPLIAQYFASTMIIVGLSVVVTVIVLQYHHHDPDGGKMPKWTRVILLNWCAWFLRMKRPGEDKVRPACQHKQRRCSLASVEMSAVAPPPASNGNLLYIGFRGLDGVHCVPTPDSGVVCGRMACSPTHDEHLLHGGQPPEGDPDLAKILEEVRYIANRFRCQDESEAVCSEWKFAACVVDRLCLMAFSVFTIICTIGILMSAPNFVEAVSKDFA
- experimentalProtocol: Antagonist activity at human alpha7 nAChR expressed in HEK293 cells co-expressing Ric-3/NACHO assessed as inhibition of ACh-induced calcium mobilization measured up to 90 secs in presence of PNU-120596 by FLIPR assay
pIC50: −log10 of the molar value.

molecule	targetOrTestSystem	readoutName	result
COc1ccc2c(c1)CCN(C)C2	Neuronal acetylcholine receptor subunit alpha-7 (Homo sapiens)	pIC50	< 4.00

Prompt: Checklist item: pIC50 tested on Neuronal acetylcholine receptor subunit alpha-7 (Homo sapiens), entry COc1cc2c(cc1OC)CN(C)CC2 , value?
Completion: < 4.00

Prompt: Also, COc1cc2c(cc1OCc1ccccc1)CCN1CCCC21 (centres undefined) please.
Completion: 5.24

Prompt: Also, C=CC[N+]1(C)CCc2cc(OC)c(OC)cc2C1 (centres undefined) please.
Completion: < 4.00

Prompt: Also, COc1cc2c(cc1OC)[C@H]1CCCN1CC2 please.
Completion: < 4.00

Prompt: Also, COc1cc2c(cc1OC)C1CCCN1CC2 (centres undefined) please.
Completion: < 4.00

Prompt: Also, COc1cc2c(cc1OCc1ccccc1)C1CCCN1CC2 (centres undefined) please.
Completion: 4.96

Prompt: Also, CN1CCc2cc3c(cc2C1)OCO3 please.
Completion: < 4.00

Prompt: Also, COc1ccc2c(c1)CCN1CCCC21 (centres undefined) please.
Completion: < 4.00

Prompt: Also, COc1cc2c(cc1O)CN(C)CC2 please.
Completion: < 4.00

Prompt: Also, COc1cc2c(cc1OCc1ccccc1)CN(C)CC2 please.
Completion: 4.52

Prompt: Also, CCC[N+]1(C)CCc2cc(OC)c(OC)cc2C1 (centres undefined) please.
Completion: < 4.00

Prompt: Also, COc1cc2c(cc1OC)[C@@H]1CCCN1CC2 please.
Completion: < 4.00

Prompt: Also, COc1ccc(CC2c3cc(OC)c(OC)cc3CCN2C)cc1OC (centres undefined) please.
Completion: < 4.00

Cited source: ChEMBL document CHEMBL4052830
